These entries and their values trace back to ChEMBL document CHEMBL1156999.

System: Aorta
assay_info: Vasodilatory activity in Wistar rat endothelium-intact thoracic aortic strip assessed as inhibition of phenylephrine-induced contraction after 120 mins
Type: functional, tissue-based
conditions: Rattus norvegicus, Wistar, Aorta, 2 h; in the assay text read “endothelium-denuded” for “endothelium-intact”; read-out: EC50
observed_property: pEC50
Answers are plain numbers, as −log10 of the molar value.

// below: answered compounds
>>> number("CN(CCCC(O)(P(=O)(O)O)P(=O)(O)O)Cc1no[n+]([O-])c1C(N)=O")
4.46
>>> number("O=P(O)(O)C(CCCCOc1no[n+]([O-])c1S(=O)(=O)c1ccccc1)P(=O)(O)O")
6.70
>>> number("Cc1c(CN(C)CCCC(O)(P(=O)(O)O)P(=O)(O)O)no[n+]1[O-]")
4.35
>>> number("O=P(O)(O)C(O)(CCCCOc1no[n+]([O-])c1-c1ccccc1)P(=O)(O)O")
3.97
>>> number("O=P(O)(O)C(O)(CCCCOc1no[n+]([O-])c1S(=O)(=O)c1ccccc1)P(=O)(O)O")
6.64

What value of pEC50 has been reported for the following compound? O=P(O)(O)C(CCCCOc1no[n+]([O-])c1-c1ccccc1)P(=O)(O)O
4.14
